# Experiment Description: soluble on expression in E. coli; label from the status in PepcDB or PDB records
Test Readout: soluble on expression in E. coli

INSERT INTO results (record_sequence, test_readout, test_value) VALUES
  ('MSEENRVGSKIRQLREARDMTVEELAEASQSSSELIQQLENGALVPSLTPLLKIARALGVRLGTFLDDMPQSGPVLVRSGLSENVVRFSGKTERPKKSALEFYSLASDKADRHMEPFIIDIHPSPEESHTLSSHEGEEFIYVLSGEIEIFYGKDVHRLSEGDSIYYDSIVPHDVHAAGKEDARIMAVVYAPL', 'soluble on expression in E. coli', 'not soluble'),
  ('MGSDKIHHHHHHMIFASDLDQTLIYSRKSFRAHIEDNSIQLIETLDGKEISFITYKTITLLIKLQLHSYFIPVTTRTIEQFQRITLFQNEIIPEYAITSNGGNILHNGKQDVTWNKEIKKRISVECIERNDILKEFEQIAHKDWVISQKTADDLFHYCIIKRENIPYDELSSFTSWLDKQGWNHSLQGRKLYFVPKPINKWDAVQYIQEILQMDTIITAGDSLLDLCMLEKANYAFAPLHGELGATYNHLQPHIVKTDAIGIYAAEEIVSKSLQIIHSSSPTS', 'soluble on expression in E. coli', 'not soluble');

----------
# Experiment Description: soluble on expression in E. coli; label from the status in PepcDB or PDB records
Test Readout: soluble on expression in E. coli

INSERT INTO results (record_sequence, test_readout, test_value) VALUES
  ('MVTQILGAMESQVGGGPAGPALPNGPLLGTNGATDDSKTNLIVNYLPQNMTQDEFKSLFGSIGDIESCKLVRDKITGQSLGYGFVNYSDPNDADKAINTLNGLKLQTKTIKVSYARPSSASIRDANLYVSGLPKTMSQKEMEQLFSQYGRIITSRILVDQVTGVSRGVGFIRFDKRIEAEEAIKGLNGQKPLGAAEPITVKFANNPSQKTGQALLTHLYQSSARRYAGPLHHQTQRFRLDNLLNMAYGVKSPLSLIARFSPIAIDGMSGLAGVGLSGGAAGAGWCIFVYNLSPEADESVLWQLFGPFGAVTNVKVIRDFTTNKCKGFGFVTMTNYDEAAMAIASLNGYRLGERVLQVSFKTSKQHKA', 'soluble on expression in E. coli', 'soluble'),
  ('MSLGDQLKIIQDGQSFAFSLDTLLLAYWAKEAIKNRSKVVELCSGNAAASLYMAAFNKAHYDDVELQEDIVSKARRSVELNDMQDRITVHQGNVKDAGSFLRKDSYDVVVVNPPYFKAPAGHKLNPDRSKAIARHELEINLEEIIAVSAGLLKMKGKMFMVHRPERLGEIINYGFKHDLAVKTVQPFVSRRGQDANLVIVEAVRSGKGDGLVLRDAIEVHEADGSNTPAIKEILEAKEGHHHHHH', 'soluble on expression in E. coli', 'soluble');

----------
# Experiment Description: soluble on expression in E. coli; label from the status in PepcDB or PDB records
Test Readout: soluble on expression in E. coli

Check out these entries, answers already filled in.
INSERT INTO results (record_sequence, test_readout, test_value) VALUES
  ('SDYDADELAEALQPVIVNTPHLKKPIGLIGAKGEFHPVLLAETSFPVQKKLTLKQAKGDFLIGVYEGDHHIEEKTLEPIPKEENAEEDDESEWSDDEPEVVREKLYTLGTKLMELGIKNANGVEIIFNINKDGALRVTARDLKTGNAVKGEL', 'soluble on expression in E. coli', 'not soluble'),
  ('MASKHAAKTVDPKDLSPAWKVLQMKLNEEKAEKEKAAKAEKEANPEGSDDGFTKVQTKKQKQKMNRKRRAQEALAAASEVKRVHHDIPVVIEDSERGELTKVIAIDCEYVGAGMGGTTDILARISIVNELGKIVYDKFVKPTEKVTDFRTAVSGIRPENMIKAIPFDRAQTEVSKLIDGRIVIGHAVHNDFRVLKLNHIRKLTRDTAKCTILKNMANHHGTPSLKKLAKEVLGIEIQRGEHDSITDARVALRLYEAVKKQWEAEIKRYR', 'soluble on expression in E. coli', 'not soluble'),
  ('QVQLQQPGTELVKPGASVKLSCKASGYTFTGFWIHWVKQRPGQGLEWIGHINPGNGGTNYNEKFKRMATLTVDKSSSTAYMQLSSLTSEDSAVYYCARSYSNYVRAMDYWGQGTSVTVSSAKTTAPSVYPLVPVCGGTTGSSVTLGCLVKGYFPEPVTLTWNSGSLSSGVHTFPALLQSGLYTLSSSVTVTSNTWPSQTITCNVAHPASSTKVDKKIEP', 'soluble on expression in E. coli', 'soluble'),
  ('MGSDKIHHHHHHSCKQAPDAGVKSSYAVMQIEPTDKELSSSYSATIRGRQDIDIYPQVSGTIEKLCVTEGQKVRRGQLLFIIDQVPYRAALKTATANVEAARAATSTAELTYKSNKELYAQKVVSEFSLKTAENSYLTAKAQLAQAEAQEISARNNLSYTEVKSPSDGVVGALPYRAGALVSANIPYPLTTVSDNSDMYVYFSMTENQLLALTRQYGDMDEALKNMPEVELILNDNSVYQKKGTIESISGVIDRQTGTVVARVVFPNESRLLHSGASGTVVVPSIYKNCIAIPQTATVRMQDKTIVYKVVDGKAVSTLITVAGINDGREYVVLDGLKAGDEIVSEGAGLVREGTQVK', 'soluble on expression in E. coli', 'not soluble'),
  ('MSLNFHDVRFPPSLSFGSLGGPQRRTDVVTLANGYEERNTPWAHSRRVYDAGLGMRSIDDVQALTGFFEARMGQMYGFRWKDWADFKSCASSVGVTFEDQSLGFGDGVRTDYQLVKTYSSGGHSYVRPITKPVAGTVRVGIEQDALQEGSDYEVDLSTGIIRFAHAPDPEMQVSAGFEFDVPVRFDTDRILVSVASFQAGQVPDVPVIEVRVEGHHHHHH', 'soluble on expression in E. coli', 'soluble'),
  ('MAERTHFMELALVEARSAGERDEVPIGAVLVLDGRVIARSGNRTRELNDVTAHAEIAVIRMACEALGQERLPGADLYVTLEPCTMCAAAISFARIRRLYYGAQDPKGGAVESGVRFFSQPTCHHAPDVYSGLAESESAEILRQF', 'soluble on expression in E. coli', 'soluble'),
  ('MAHMVNGKVALVTGAAQGIGRAFAEALLLKGAKVALVDWNLEAGVQCKAALHEQFEPQKTLFIQCDVADQQQLRDTFRKVVDHFGRLDILVNNAGVNNEKNWEKTLQINLVSVISGTYLGLDYMSKQNGGEGGIIINMSSLAGLMPVAQQPVYCASKHGIVGFTRSAALAANLMNSGVRLNAICPGFVNTAILESIEKEENMGQYIEYKDHIKDMIKYYGILDPPLIANGLITLIEDDALNGAIMKITTSKGIHFQDYGSKENLYFQ', 'soluble on expression in E. coli', 'soluble'),
  ('MELLQGKTFVVMGVANQRSIAWGIARSLHNAGAKLIFTYAGERLERNVRELADTLEGQESLVLPCDVTNDEELTACFETIKQEVGTIHGVAHCIAFANRDDLKGEFVDTSRDGFLLAQNISAFSLTAVAREAKKVMTEGGNILTLTYLGGERVVKNYNVMGVAKASLEASVKYLANDLGQHGIRVNAISAGPIRTLSAKGVGDFNSILREIEERAPLRRTTTQEEVGDTAVFLFSDLARGVTGENIHVDSGYHILG', 'soluble on expression in E. coli', 'soluble'),
  ('MKVVPAQRCVYSFSANMAPVEEVYPGEQVVFETLDALGGSYDKIDFSKVNPATGPVFVNGVKPGDTLKVRIKRIELPRRGMIVTGKGFGVLGDEVEGFHTKELEIEKWAVLFDGVRIPIHPMVGVIGVAPQEGEYPTGTAHRHGGNMDTKEITENVTVHLPVFQEGALLALGDVHATMGDGEVCVSACEVPAKVVVEIDVSKEEIKWPVVETNDAYYIIVSLPDIEEALKEVTRETVWFIQRRKTIPFTDAYMLASLSVDVGISQLVNPAKTAKARIPKYIFTGVLEHHHHHH', 'soluble on expression in E. coli', 'not soluble'),
  ('MTTAPAKISEYTVSTPDRTVASVRADGIVAATPLGSHGYAADAGGPHLAPGVSAAAVVPVSPFRVDRTNWVVCPPVSVTVARDETTVELHADGHAHGRVPVDSPVTLSWGTPLPIAVVSHAGTHGD', 'soluble on expression in E. coli', 'soluble');

Dear reader, for each entry below, please note its soluble on expression in E. coli.
1. MYILLCCAAGMSTSMVVRKMQEEAKKQGKDYKIKAVDSELVKLEIKNADVVLIGPQVKYLFPAVQFLAKSYDIPVAIIEQRDYGMCDGLKVLKQAEQLVLA
2. MGSDKIHHHHHHMPNIDTFVPEKIQIGISSCLLGNQVRFDGGHKNSYYCRQEIEPFFEYTTVCPEMAIGMGTPRKSIRQIRDGDVVHIRSADGTLDVTDKLNEYSQAKVEELDYLGGYILCAKSPTCGMERVTEYKIGTNNGSKTGVGVFAKKLMERYPLLPVEEEGRLHDLPLRENFFTRVFAYNDWKQMTQSGLTKHKLMQFHSRYKYLLMAHSPKWYRDLGPILADIQDVEQTAQQYFEGFMTALKIIATRKNHTSTLQHIQGYFKKQLTAEQKEELSESILKYRQGLLPLLVPITLINHYVREFHTPYIQDQVYLNPHPEALKLRYAY

1: not soluble; 2: not soluble
